B1: FANCE (parent)
chain: AQVLMLGQILELPWKEETFLVLQS

- Variants of: B1
- protocol.details: protein stability index of a GFP-peptide fusion (GPS, HEK-293T) (PSI 1-6); higher = more stable;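 further: lentivirally expressed fusions sorted by FACS into six bins by GFP to DsRed ratio, PSI derived from sequencing read proportions per bin multiplied by bin number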
- conditions: c terminus: a fixed tail appended
Please use 1 whenever protein stability index is not below 2, and 0 whenever it is.

{"mutant.name": "L12Q", "label.class": 1}
{"mutant.name": "E11P", "label.class": 1}
{"mutant.name": "L20Q", "label.class": 1}
{"mutant.name": "I9N", "label.class": 0}
{"mutant.name": "Q2Y", "label.class": 0}
{"mutant.name": "W14H", "label.class": 1}
{"mutant.name": "E16N", "label.class": 1}
{"mutant.name": "L12K", "label.class": 1}
{"mutant.name": "M5E", "label.class": 0}
{"mutant.name": "T18M", "label.class": 1}
{"mutant.name": "E17R", "label.class": 0}
{"mutant.name": "V21Q", "label.class": 1}
{"mutant.name": "E16K", "label.class": 1}
{"mutant.name": "E17Q", "label.class": 1}
{"mutant.name": "A1T", "label.class": 1}
{"mutant.name": "K15A", "label.class": 1}
{"mutant.name": "E11M", "label.class": 1}
{"mutant.name": "Q8H", "label.class": 1}
{"mutant.name": "V3M", "label.class": 1}
{"mutant.name": "T18R", "label.class": 1}
{"mutant.name": "Q8V", "label.class": 1}
{"mutant.name": "L12I", "label.class": 1}
{"mutant.name": "S24C", "label.class": 1}
{"mutant.name": "M5P", "label.class": 0}
{"mutant.name": "W14F", "label.class": 1}
{"mutant.name": "P13C", "label.class": 1}
{"mutant.name": "E11V", "label.class": 1}
{"mutant.name": "K15M", "label.class": 1}
{"mutant.name": "F19W", "label.class": 0}
{"mutant.name": "L12F", "label.class": 1}
